experiment: Volume of distribution in rhesus macaque plasma at 75 mg, iv after 0 to 24 hrs by HPLC analysis; type: ADME, organism-based, Macaca mulatta; settings: rhesus monkey

molecule.smiles | unit.text | Vd
CC1(C)CC(NC(=O)C(=O)Nc2ccc3c(c2)OCO3)CC(C)(C)N1 | L | 37.2

---

assay: Toxicity in iv dosed rhesus macaque; type: organism-based, Macaca mulatta; details: rhesus monkey, in vivo
experimental.readout: MTD (mg/kg)

molecule.smiles | data.value
CC1(C)CC(NC(=O)C(=O)Nc2ccc3c(c2)OCO3)CC(C)(C)N1.Cl | 12.5

---

Overview of recorded CC50 for various compounds
assay: Cytotoxicity against mock-infected human PM1 cells expressing CCR5 by WST method; format: cell-based

compound | CC50
CC1(C)CC(NC(=O)C(=O)Nc2ccc(Cl)cc2)CC(C)(C)N1 | 70.4 µM
O=C(Nc1ccc2c(c1)OCO2)C(=O)NC1CC2(CCCCC2)NC2(CCCCC2)C1 (centres undefined) | > 200 µM
CC1(C)CC(NC(=O)C(=O)Nc2ccc3c(c2)OCO3)CC(C)(C)N1 | > 300 µM
CCOC(=O)C1CCN(NC(=O)C(=O)Nc2ccc3c(c2)OCO3)CC1 | > 200 µM
